Test system: Madurella mycetomatis MM55
Assay: growth relative to untreated control; higher = less inhibition, active = 20 or less
Conditions: 100 µM
Labels: 1 = active, -1 = inactive

- Molecule: "CN/C(=N/CC1CCOC1)N[N+](=O)[O-] (stereo unspecified)"
  Subject of test: "Madurella mycetomatis MM55"
  Class assignment: -1
- Molecule: "CN(C)CCn1c(Nc2cc(Cl)cc(C(F)(F)F)c2)nc2cnc(NC3CCCC3)cc21"
  Subject of test: "Madurella mycetomatis MM55"
  Class assignment: -1
- Molecule: "COP(=S)(OC)Oc1nc(Cl)c(Cl)cc1Cl"
  Subject of test: "Madurella mycetomatis MM55"
  Class assignment: -1
- Molecule: "CC(F)c1ncnc(NCCc2ccc(OC(F)(F)F)cc2)c1Cl (stereo unspecified)"
  Subject of test: "Madurella mycetomatis MM55"
  Class assignment: 1
- Molecule: "CC(C)=CC1C(C(=O)OC(C#N)c2cccc(Oc3ccccc3)c2)C1(C)C (stereo unspecified)"
  Subject of test: "Madurella mycetomatis MM55"
  Class assignment: -1
- Molecule: "O=C(NC(=O)c1c(F)cccc1F)Nc1ccc(Cl)c(Oc2ncc(C(F)(F)F)cc2Cl)c1"
  Subject of test: "Madurella mycetomatis MM55"
  Class assignment: -1

----------
System: Falciformispora senegalensis CBS197.79
Assay: growth relative to untreated control; higher = less inhibition, active = 20 or less
Conditions: 25 µM

- Molecule: "CN(c1cc(NC(=O)c2ccc(F)cc2)ccn1)C1CCN(Cc2cccc(F)c2)CC1"
  growth: "66% (inactive)"
- Molecule: "CNC(=O)c1cc(Cl)cc(C)c1NC(=O)c1cc(Br)nn1-c1ncccc1Cl"
  growth: "93.3% (inactive)"
- Molecule: "CC1(C)C(C=C(Cl)Cl)C1C(=O)OCc1cccc(Oc2ccccc2)c1 (stereo not given)"
  growth: "70.4% (inactive)"
- Molecule: "N#Cc1nn(-c2c(Cl)cc(C(F)(F)F)cc2Cl)c(NCc2ccccn2)c1SC(F)F"
  growth: "85.6% (inactive)"
- Molecule: "C=C(C)[C@H]1Cc2c(ccc3c2O[C@@H]2COc4cc(OC)c(OC)cc4[C@@H]2C3=O)O1"
  growth: "90.6% (inactive)"
- Molecule: "CC1(C)C(C=C(Cl)Cl)C1C(=O)OC(C#N)c1ccc(F)c(Oc2ccccc2)c1 (stereo not given)"
  growth: "94% (inactive)"
- Molecule: "CC(C)=CC1C(C(=O)OCN2C(=O)C3=C(CCCC3)C2=O)C1(C)C (stereo not given)"
  growth: "93.7% (inactive)"
- Molecule: "CC(C)=CC1C(C(=O)OC(C#N)c2cccc(Oc3ccccc3)c2)C1(C)C (stereo not given)"
  growth: "78.2% (inactive)"
- Molecule: "CNC(=O)O/N=C(/C)SC"
  growth: "86.2% (inactive)"
- Molecule: "FC(F)(F)c1cc(Cl)cc(Nc2nc3cnc(OC4CCC4)cc3n2[C@@H]2CCNC2)c1"
  growth: "99.8% (inactive)"

----------
Tested on: Madurella mycetomatis MM55
Assay: growth relative to untreated control; higher = less inhibition, active = 20 or less
Settings: 25 µM
# thresholds on growth define classes: c1 (below 70%), c2 (70% to below 90%), c3 (90% or more)

- Molecule: "O=[N+]([O-])/C=C1\\NCCCS1"
  Class assignment: "c3"
- Molecule: "Cc1cc(C2=NOC(c3cc(Cl)cc(Cl)c3)(C(F)(F)F)C2)ccc1C(=O)NCC(=O)NCC(F)(F)F (stereo not drawn)"
  Class assignment: "c1"
- Molecule: "Clc1ccc(C(OCCN2CCCCC2)c2ccccc2)cc1 (stereo not drawn)"
  Class assignment: "c3"
- Molecule: "CCN(Cc1ccc(Cl)nc1)/C(=C/[N+](=O)[O-])NC"
  Class assignment: "c2"
- Molecule: "COc1ccc(Cc2nccc3cc(OC)c(OC)cc23)cc1OC"
  Class assignment: "c2"
- Molecule: "CC1(C)C(C=C(Cl)Cl)C1C(=O)OC(C#N)c1ccc(F)c(Oc2ccccc2)c1 (stereo not drawn)"
  Class assignment: "c3"
- Molecule: "CNC(=O)c1cc(Cl)cc(C)c1NC(=O)c1cc(Br)nn1-c1ncccc1Cl"
  Class assignment: "c2"
- Molecule: "CCOC(=O)CC(SP(=S)(OC)OC)C(=O)OCC (stereo not drawn)"
  Class assignment: "c3"
- Molecule: "CCN(CC)c1nc(C)cc(OP(=S)(OC)OC)n1"
  Class assignment: "c3"
- Molecule: "O=C(NC(=O)c1c(F)cccc1F)Nc1ccc(Cl)c(Oc2ncc(C(F)(F)F)cc2Cl)c1"
  Class assignment: "c1"
- Molecule: "C[C@@H]1O[C@@H](O[C@@H]2C=C3CC[C@@H]4[C@H](CC[C@]5(C)[C@@H](c6ccc(=O)oc6)CC[C@]45O)[C@@]3(C)CC2)[C@H](O)[C@H](O)[C@H]1O"
  Class assignment: "c3"
- Molecule: "C[C@@H]1C[C@@H]([C@H](O)CC2CC(=O)NC(=O)C2)C(=O)[C@@H](C)C1"
  Class assignment: "c1"
- Molecule: "CN1CCN(C(=O)O[C@H]2c3nccnc3C(=O)N2c2ccc(Cl)cn2)CC1"
  Class assignment: "c2"
- Molecule: "N#Cc1nn(-c2c(Cl)cc(C(F)(F)F)cc2Cl)c(NCc2ccccn2)c1SC(F)F"
  Class assignment: "c1"
- Molecule: "COC(=O)N(C(=O)N1CO[C@@]2(C(=O)OC)Cc3cc(Cl)ccc3C2=N1)c1ccc(OC(F)(F)F)cc1"
  Class assignment: "c1"
- Molecule: "C/C=C(\\C)C(=O)O[C@H]1C[C@@H](OC(C)=O)[C@@]2(C(=O)OC)CO[C@H]3[C@@H](O)[C@@](C)([C@]45O[C@@]4(C)[C@H]4C[C@@H]5O[C@@H]5OC=C[C@@]54O)[C@H]4[C@]1(CO[C@]4(O)C(=O)OC)[C@@H]32"
  Class assignment: "c3"
